Please go through the items and note down their zone of inhibition at 1000 µg/mL.
test system: Neurospora crassa 846; experiment: Agar plate disc diffusion test (zone of inhibition); assay type: cell-based; settings: Neurospora crassa, 846; suspension in methanol 1 mg/ml, 7mm disc; 24-48 hours at 25-37° C.; read-out: Size of zone of inhibition, Neurospora crassa 846
Numbered stars: 1 amine (or outer) side, 2 acyl side, 3 side chain; on linkers, the order of the positions; unused ones are H or OH. Bridge positions count the residues as written; N and C are the ends. Square brackets hold non-standard residues; d marks the D form. Peptide text beside a SMILES is read from it. * marks the point of attachment. Orn(4R-OH,5R-OH) = O=C([C@H](C[C@@H](O)[C@@H](O)N[*:3])N[*:1])[*:2]; hTyr(3S-OH,4S-OH) = N[C@H](C(=O)O)[C@H](O)[C@@H](O)c1ccc(O)cc1; Pro(3S-OH,4S-Me) = C[C@H]1CN[C@H](C(=O)O)[C@H]1O; Docosanoyl = CCCCCCCCCCCCCCCCCCCCCC(=O)*; Heptadecanoyl = CCCCCCCCCCCCCCCCC(=O)*; Oleoyl = CCCCCCCC/C=C\CCCCCCCC(=O)*; Hyp = O=C(O)[C@@H]1C[C@@H](O)CN1
One number for each entry, in mm.

// worked examples, zone of inhibition at 1000 µg/mL included
>  <COMPOUND>
CCCCCCCCCCCCCCCCCCCCCC(=O)N[C@H]1C[C@@H](O)[C@@H](O)NC(=O)[C@@H]2[C@@H](O)[C@@H](C)CN2C(=O)[C@H]([C@@H](C)O)NC(=O)[C@H]([C@H](O)[C@@H](O)c2ccc(O)cc2)NC(=O)[C@@H]2C[C@@H](O)CN2C(=O)[C@H]([C@@H](C)O)NC1=O [Example 15] (Docosanoyl-[Orn(4R-OH,5R-OH)]T[Hyp][hTyr(3S-OH,4S-OH)]T[Pro(3S-OH,4S-Me)]; lactam 1-C)

>  <UNIT_NAME>
mm

>  <zone of inhibition at 1000 µg/mL>
15

$$$$
>  <COMPOUND>
CCCCCCCC/C=C\CCCCCCCC(=O)N[C@H]1C[C@@H](O)[C@@H](O)NC(=O)[C@@H]2[C@@H](O)[C@@H](C)CN2C(=O)[C@H]([C@@H](C)O)NC(=O)[C@H]([C@H](O)[C@@H](O)c2ccc(O)cc2)NC(=O)[C@@H]2C[C@@H](O)CN2C(=O)[C@H]([C@@H](C)O)NC1=O [Example 7] (Oleoyl-[Orn(4R-OH,5R-OH)]T[Hyp][hTyr(3S-OH,4S-OH)]T[Pro(3S-OH,4S-Me)]; lactam 1-C)

>  <UNIT_NAME>
mm

>  <zone of inhibition at 1000 µg/mL>
18

$$$$

Query compound follows.
What does the data say about its zone of inhibition at 1000 µg/mL? Entry: CCCCCCCCCCCCCCCCC(=O)N[C@H]1C[C@@H](O)[C@@H](O)NC(=O)[C@@H]2[C@@H](O)[C@@H](C)CN2C(=O)[C@H]([C@@H](C)O)NC(=O)[C@H]([C@H](O)[C@@H](O)c2ccc(O)cc2)NC(=O)[C@@H]2C[C@@H](O)CN2C(=O)[C@H]([C@@H](C)O)NC1=O [Example 5] (Heptadecanoyl-[Orn(4R-OH,5R-OH)]T[Hyp][hTyr(3S-OH,4S-OH)]T[Pro(3S-OH,4S-Me)]; lactam 1-C) 21

----------
system: Trichophyton mentagraphytes A-23; test: Agar plate disc diffusion test (zone of inhibition); format: cell-based, Trichophyton mentagrophytes; conditions: A23, suspension in methanol 1 mg/ml, 7mm disc, *distinct measurable zone of inhibition with regrowth of organism around disc, read-out: Size of zone of inhibition, Trichophyton mentagraphytes A-23 (*)
Numbered stars: 1 amine (or outer) side, 2 acyl side, 3 side chain; on linkers, the order of the positions; unused ones are H or OH. Bridge positions count the residues as written; N and C are the ends. Square brackets hold non-standard residues; d marks the D form. Peptide text beside a SMILES is read from it. * marks the point of attachment. Orn(4R-OH,5R-OH) = O=C([C@H](C[C@@H](O)[C@@H](O)N[*:3])N[*:1])[*:2]; hTyr(3S-OH,4S-OH) = N[C@H](C(=O)O)[C@H](O)[C@@H](O)c1ccc(O)cc1; Pro(3S-OH,4S-Me) = C[C@H]1CN[C@H](C(=O)O)[C@H]1O; X4 = CCCCCCCC/C=C\CCCCCCCCCC(=O)*; Hyp = O=C(O)[C@@H]1C[C@@H](O)CN1
MEASUREMENT_NAME: zone of inhibition at 1000 µg/mL (mm)
One number for each entry, in mm.

What does the data say about its zone of inhibition at 1000 µg/mL? Entry: CCCCCCCC/C=C\CCCCCCCCCC(=O)N[C@H]1C[C@@H](O)[C@@H](O)NC(=O)[C@@H]2[C@@H](O)[C@@H](C)CN2C(=O)[C@H]([C@@H](C)O)NC(=O)[C@H]([C@H](O)[C@@H](O)c2ccc(O)cc2)NC(=O)[C@@H]2C[C@@H](O)CN2C(=O)[C@H]([C@@H](C)O)NC1=O [Example 14] (X4-[Orn(4R-OH,5R-OH)]T[Hyp][hTyr(3S-OH,4S-OH)]T[Pro(3S-OH,4S-Me)]; lactam 1-C) 23

----------
test system: Candida albicans A-26; experiment: In vivo activity against Candida albicans A-26 infection in mice; set-up: species or system mice infected with Candida albicans A-26; conditions: Candida albicans, A26, sc, 24 h, mice, subcutaneous, schedule A (40, 20, 15, and 10 mg/kg), 0, 4, 24 hours; read-out: Lowest Active Dose
Numbered stars: 1 amine (or outer) side, 2 acyl side, 3 side chain; on linkers, the order of the positions; unused ones are H or OH. Bridge positions count the residues as written; N and C are the ends. Square brackets hold non-standard residues; d marks the D form. Peptide text beside a SMILES is read from it. * marks the point of attachment. Orn(4R-OH,5R-OH) = O=C([C@H](C[C@@H](O)[C@@H](O)N[*:3])N[*:1])[*:2]; hTyr(3S-OH,4S-OH) = N[C@H](C(=O)O)[C@H](O)[C@@H](O)c1ccc(O)cc1; Pro(3S-OH,4S-Me) = C[C@H]1CN[C@H](C(=O)O)[C@H]1O; Arachidoyl = CCCCCCCCCCCCCCCCCCCC(=O)*; Oleoyl = CCCCCCCC/C=C\CCCCCCCC(=O)*; Hyp = O=C(O)[C@@H]1C[C@@H](O)CN1; X3 = CCCCCCCC/C=C/CCCCCCCC(=O)*
MEASUREMENT_NAME: minimal effective dose (mg/kg)
Answers are plain numbers, in mg/kg.

>  <COMPOUND>
CCCCCCCCCCCCCCCCCCCC(=O)N[C@H]1C[C@@H](O)[C@@H](O)NC(=O)[C@@H]2[C@@H](O)[C@@H](C)CN2C(=O)[C@H]([C@@H](C)O)NC(=O)[C@H]([C@H](O)[C@@H](O)c2ccc(O)cc2)NC(=O)[C@@H]2C[C@@H](O)CN2C(=O)[C@H]([C@@H](C)O)NC1=O [Example 13] (Arachidoyl-[Orn(4R-OH,5R-OH)]T[Hyp][hTyr(3S-OH,4S-OH)]T[Pro(3S-OH,4S-Me)]; lactam 1-C)

>  <MEASUREMENT_NAME>
minimal effective dose

>  <RECORDED_MEASUREMENT>
10

$$$$
>  <COMPOUND>
CCCCCCCC/C=C\CCCCCCCC(=O)N[C@H]1C[C@@H](O)[C@@H](O)NC(=O)[C@@H]2[C@@H](O)[C@@H](C)CN2C(=O)[C@H]([C@@H](C)O)NC(=O)[C@H]([C@H](O)[C@@H](O)c2ccc(O)cc2)NC(=O)[C@@H]2C[C@@H](O)CN2C(=O)[C@H]([C@@H](C)O)NC1=O [Example 7] (Oleoyl-[Orn(4R-OH,5R-OH)]T[Hyp][hTyr(3S-OH,4S-OH)]T[Pro(3S-OH,4S-Me)]; lactam 1-C)

>  <MEASUREMENT_NAME>
minimal effective dose

>  <RECORDED_MEASUREMENT>
10

$$$$

Query compound follows.
What does the data say about its minimal effective dose? Entry: CCCCCCCC/C=C/CCCCCCCC(=O)N[C@H]1C[C@@H](O)[C@@H](O)NC(=O)[C@@H]2[C@@H](O)[C@@H](C)CN2C(=O)[C@H]([C@@H](C)O)NC(=O)[C@H]([C@H](O)[C@@H](O)c2ccc(O)cc2)NC(=O)[C@@H]2C[C@@H](O)CN2C(=O)[C@H]([C@@H](C)O)NC1=O [Example 8] (X3-[Orn(4R-OH,5R-OH)]T[Hyp][hTyr(3S-OH,4S-OH)]T[Pro(3S-OH,4S-Me)]; lactam 1-C) 10

----------
test: Blood levels after oral administration in mice (bioassay vs. Aspergillus montevidensis A35137); details: mouse, in vivo, po; four hours after 416 mg/kg by gavage, suspension in 33% PEG 400-H2O; read-out: Blood Levels After Oral Administration In Mice
Numbered stars: 1 amine (or outer) side, 2 acyl side, 3 side chain; on linkers, the order of the positions; unused ones are H or OH. Bridge positions count the residues as written; N and C are the ends. Square brackets hold non-standard residues; d marks the D form. Peptide text beside a SMILES is read from it. * marks the point of attachment. Orn(4R-OH,5R-OH) = O=C([C@H](C[C@@H](O)[C@@H](O)N[*:3])N[*:1])[*:2]; hTyr(3S-OH,4S-OH) = N[C@H](C(=O)O)[C@H](O)[C@@H](O)c1ccc(O)cc1; Pro(3S-OH,4S-Me) = C[C@H]1CN[C@H](C(=O)O)[C@H]1O; Hyp = O=C(O)[C@@H]1C[C@@H](O)CN1; Tridecanoyl = CCCCCCCCCCCCC(=O)*
MEASUREMENT_NAME: concentration at 4 h
Please answer in the form of a number followed by its unit of measurement.

What does the data say about its concentration at 4 h? Entry: CCCCCCCCCCCCC(=O)N[C@H]1C[C@@H](O)[C@@H](O)NC(=O)[C@@H]2[C@@H](O)[C@@H](C)CN2C(=O)[C@H]([C@@H](C)O)NC(=O)[C@H]([C@H](O)[C@@H](O)c2ccc(O)cc2)NC(=O)[C@@H]2C[C@@H](O)CN2C(=O)[C@H]([C@@H](C)O)NC1=O [Example 2] (Tridecanoyl-[Orn(4R-OH,5R-OH)]T[Hyp][hTyr(3S-OH,4S-OH)]T[Pro(3S-OH,4S-Me)]; lactam 1-C) 100 ng/mL

Ref: patent US4320052A
